These data points were gathered from ChEMBL document CHEMBL5532660.

system: UniProtKB O14746
Sequence (O14746 whole entry): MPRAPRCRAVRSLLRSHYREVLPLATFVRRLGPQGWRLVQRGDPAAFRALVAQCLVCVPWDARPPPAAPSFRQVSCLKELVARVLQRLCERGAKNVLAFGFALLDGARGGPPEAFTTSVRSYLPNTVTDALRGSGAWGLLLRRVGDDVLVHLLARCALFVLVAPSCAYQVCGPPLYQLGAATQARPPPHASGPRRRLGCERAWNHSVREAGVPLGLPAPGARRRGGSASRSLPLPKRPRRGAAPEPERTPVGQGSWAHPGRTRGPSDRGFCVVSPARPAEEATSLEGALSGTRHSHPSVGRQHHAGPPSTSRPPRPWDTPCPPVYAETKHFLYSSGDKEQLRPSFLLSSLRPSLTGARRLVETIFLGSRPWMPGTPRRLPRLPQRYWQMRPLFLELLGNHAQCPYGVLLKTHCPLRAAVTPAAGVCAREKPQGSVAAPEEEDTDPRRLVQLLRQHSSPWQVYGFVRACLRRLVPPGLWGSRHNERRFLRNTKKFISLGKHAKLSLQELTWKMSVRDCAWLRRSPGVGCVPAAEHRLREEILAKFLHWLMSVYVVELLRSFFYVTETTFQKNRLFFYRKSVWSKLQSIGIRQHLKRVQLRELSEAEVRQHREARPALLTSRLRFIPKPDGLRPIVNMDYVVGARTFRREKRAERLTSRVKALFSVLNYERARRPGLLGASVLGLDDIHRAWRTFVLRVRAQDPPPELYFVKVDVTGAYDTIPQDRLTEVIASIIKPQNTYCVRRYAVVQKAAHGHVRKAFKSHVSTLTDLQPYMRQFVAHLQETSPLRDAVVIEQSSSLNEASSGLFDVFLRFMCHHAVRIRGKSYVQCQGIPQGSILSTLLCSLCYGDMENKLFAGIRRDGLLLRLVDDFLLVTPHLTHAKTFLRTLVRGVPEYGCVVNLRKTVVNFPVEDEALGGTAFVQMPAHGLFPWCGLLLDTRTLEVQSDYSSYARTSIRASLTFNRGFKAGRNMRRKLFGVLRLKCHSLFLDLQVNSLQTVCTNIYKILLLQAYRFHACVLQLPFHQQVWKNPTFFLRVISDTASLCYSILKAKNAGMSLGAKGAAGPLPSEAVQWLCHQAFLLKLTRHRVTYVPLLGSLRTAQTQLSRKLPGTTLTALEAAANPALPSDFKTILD
assayComment: Inhibition of telomerase (unknown origin) by RT-qPCR analysis relative to control
Design: concentration or dose not given beside the values
assayConditions: concentration not given here
Label true (1) for high-side inhibition (at or above 50%) and false (0) for low-side inhibition (below it).

Sample answers from the record:
q: Please indicate if the recorded inhibition for "CC(=O)c1ccc(NC(=O)CSc2nc(O)c(C#N)c(-c3cccnc3)n2)cc1" meets or exceeds 50%.
a: false (0)

q: Please indicate if the recorded inhibition for "N#Cc1c(O)nc(SCC(=O)Nc2cccc([N+](=O)[O-])c2)nc1-c1cccnc1" meets or exceeds 50%.
a: false (0)

q: Please indicate if the recorded inhibition for "N#Cc1c(O)nc(SCC(=O)Nc2nc3ccccc3s2)nc1-c1cccnc1" meets or exceeds 50%.
a: false (0)

q: Please indicate if the recorded inhibition for "N#Cc1c(O)nc(SCC(=O)Nc2cccc3ccccc23)nc1-c1cccnc1" meets or exceeds 50%.
a: false (0)

q: Please indicate if the recorded inhibition for "N#Cc1c(O)nc(SCC(=O)Nc2ccc3ccccc3c2)nc1-c1cccnc1" meets or exceeds 50%.
a: false (0)

q: Please indicate if the recorded inhibition for "C/C(=C\C(=O)Nc1ccccc1C(=O)O)c1ccc2ccccc2c1" meets or exceeds 50%.
a: true (1)

q: Please indicate if the recorded inhibition for "N#Cc1c(O)nc(SCC(=O)Nc2sc3c(c2C#N)CCCC3)nc1-c1cccnc1" meets or exceeds 50%.
a: true (1)

q: Please indicate if the recorded inhibition for "N#Cc1ccc(NC(=O)CSc2nc(O)c(C#N)c(-c3cccnc3)n2)cc1" meets or exceeds 50%.
a: false (0)

q: Please indicate if the recorded inhibition for "N#Cc1c(O)nc(SCC(=O)Nc2ccc(Cl)c(C(F)(F)F)c2)nc1-c1cccnc1" meets or exceeds 50%.
a: false (0)

q: Please indicate if the recorded inhibition for "C/C(=C\C(=O)Nc1ccc(N2CCOCC2)cc1C(=O)O)c1ccc2ccccc2c1" meets or exceeds 50%.
a: true (1)

New cases:
q: Please indicate if the recorded inhibition for "N#Cc1c(O)nc(SCC(=O)Nc2nc3ccccc3[nH]2)nc1-c1cccnc1" meets or exceeds 50%.
a: false (0)
